# Experimental target: cysteines in MDA-MB-231 and Ramos cells (Homo sapiens, UniProt Q96NY7)
# Sequence (Q96NY7 whole entry, the tested form may be a part): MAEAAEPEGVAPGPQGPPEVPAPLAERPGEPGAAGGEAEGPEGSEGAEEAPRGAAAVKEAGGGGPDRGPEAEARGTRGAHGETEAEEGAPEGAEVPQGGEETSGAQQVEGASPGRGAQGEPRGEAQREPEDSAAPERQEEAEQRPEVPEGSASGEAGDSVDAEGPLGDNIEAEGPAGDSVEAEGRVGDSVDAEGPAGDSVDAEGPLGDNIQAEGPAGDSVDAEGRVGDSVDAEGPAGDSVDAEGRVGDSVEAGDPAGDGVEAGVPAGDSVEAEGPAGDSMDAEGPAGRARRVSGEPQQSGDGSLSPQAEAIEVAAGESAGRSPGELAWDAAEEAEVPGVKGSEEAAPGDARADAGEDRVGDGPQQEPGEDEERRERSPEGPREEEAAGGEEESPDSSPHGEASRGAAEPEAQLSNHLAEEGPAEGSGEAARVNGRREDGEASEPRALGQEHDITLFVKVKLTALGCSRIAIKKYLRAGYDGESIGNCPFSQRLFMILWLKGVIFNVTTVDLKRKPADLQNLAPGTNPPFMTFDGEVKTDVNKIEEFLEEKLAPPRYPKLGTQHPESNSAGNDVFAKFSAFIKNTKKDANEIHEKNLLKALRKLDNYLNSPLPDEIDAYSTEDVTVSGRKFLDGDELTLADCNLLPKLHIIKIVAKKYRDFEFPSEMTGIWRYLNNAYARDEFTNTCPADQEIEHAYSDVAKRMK
# Protocol summary: Competitive isoTOP-ABPP in situ (fragment-treated cells)
# Assay type: cell-based
# Condition set: 200 μM, insitu, 231
We begin with a simple list: items and their reported isoTOP-ABPP ratio Q96NY7_C487.
Returns: the value as a bare number; no unit string appended.

Known results for compounds:
Would you mind telling me what isoTOP-ABPP ratio Q96NY7_C487 value was observed for "O=C(CCl)NCCc1c[nH]c2ccccc12" ? 1.9

# repeat for CC1CCc2ccccc2N1C(=O)CCl (stereo not shown) 1.8

# repeat for "O=C(CCl)N1CCN(S(=O)(=O)c2ccccc2F)CC1" 3.2

# repeat for "C=CC(=O)N(Cc1cccnc1)c1cc(C(F)(F)F)cc(C(F)(F)F)c1" 0.5

# repeat for "O=C(CCl)NC12CC3CC(CC(C3)C1)C2" 1.2

---
Would you mind telling me what isoTOP-ABPP ratio Q96NY7_C487 value was observed for "O=C(CCl)NC(=O)NC12CC3CC(CC(C3)C1)C2" ? 20.0

# repeat for "Cc1ccc(C=C(C#N)C(=O)NCCN2CCOCC2)cc1" 0.4

###

# Experimental target: cysteines in MDA-MB-231 and Ramos cells (Homo sapiens)
# Protocol summary: Competitive isoTOP-ABPP in situ (fragment-treated cells)
# Assay type: cell-based
# Condition set: 200 μM, insitu, 231
We begin with a simple list: items and their reported isoTOP-ABPP ratio P29590_C389.
Returns: the value as a bare number; no unit string appended.

Would you mind telling me what isoTOP-ABPP ratio P29590_C389 value was observed for "O=C(CCl)Nc1cccc2ncccc12" ? 0.9

---
Would you mind telling me what isoTOP-ABPP ratio P29590_C389 value was observed for CC1CCc2ccccc2N1C(=O)CCl (stereo not drawn) ? 3.4

# repeat for "O=C(CCl)NCCc1c[nH]c2ccccc12" 1.3

# repeat for "O=C(CCl)NC12CC3CC(CC(C3)C1)C2" 20.0

# repeat for "Cc1ccc(C=C(C#N)C(=O)NCCN2CCOCC2)cc1" 0.4

# repeat for "O=C(CCl)N1CCN(S(=O)(=O)c2ccccc2F)CC1" 7.9

# repeat for "CC(C)CCOCCNC(=O)CCl" 0.5

# repeat for "C=CC(=O)N(Cc1cccnc1)c1cc(C(F)(F)F)cc(C(F)(F)F)c1" 1.1

# repeat for "C=CC(=O)Nc1cc(F)c(N2CCN(C(=O)OC(C)(C)C)CC2)c(F)c1" 2.2

###

# Experimental target: cysteines in MDA-MB-231 and Ramos cells (Homo sapiens, UniProt P04818)
# Sequence (P04818 whole entry, the tested form may be a part): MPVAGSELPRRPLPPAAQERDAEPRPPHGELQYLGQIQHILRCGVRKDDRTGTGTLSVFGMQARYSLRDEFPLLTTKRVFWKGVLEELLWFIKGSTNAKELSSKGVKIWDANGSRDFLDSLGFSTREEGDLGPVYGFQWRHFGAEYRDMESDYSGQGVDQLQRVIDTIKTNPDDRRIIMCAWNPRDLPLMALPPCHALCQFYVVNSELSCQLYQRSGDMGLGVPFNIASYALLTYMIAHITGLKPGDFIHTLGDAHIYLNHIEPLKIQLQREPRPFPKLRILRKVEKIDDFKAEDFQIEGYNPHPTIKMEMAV
# Protocol summary: Competitive isoTOP-ABPP in situ (fragment-treated cells)
# Format: cell-based
# Condition set: 200 μM, insitu, 231
We begin with a simple list: items and their reported isoTOP-ABPP ratio P04818_C199.
Returns: the value as a bare number; no unit string appended.

Known results for compounds:
Would you mind telling me what isoTOP-ABPP ratio P04818_C199 value was observed for CC1CCc2ccccc2N1C(=O)CCl (centres unmarked) ? 20.0

# repeat for "CC(C)CCOCCNC(=O)CCl" 0.5

# repeat for "C=CC(=O)Nc1cc(F)c(N2CCN(C(=O)OC(C)(C)C)CC2)c(F)c1" 20.0

# repeat for "O=C(CCl)Nc1cccc2ncccc12" 20.0

Now turn to the next compound.
Would you mind telling me what isoTOP-ABPP ratio P04818_C199 value was observed for "Cc1ccc(C=C(C#N)C(=O)NCCN2CCOCC2)cc1" ? 0.7

Hey, just so you know, these numbers are from patent US10670605B2.
